- target entity: human GPBAR1 (Homo sapiens)
- Construct: expressed in transfected cells; host or cells: HEK-293T
- Sequence (Q8TDU6 1-330): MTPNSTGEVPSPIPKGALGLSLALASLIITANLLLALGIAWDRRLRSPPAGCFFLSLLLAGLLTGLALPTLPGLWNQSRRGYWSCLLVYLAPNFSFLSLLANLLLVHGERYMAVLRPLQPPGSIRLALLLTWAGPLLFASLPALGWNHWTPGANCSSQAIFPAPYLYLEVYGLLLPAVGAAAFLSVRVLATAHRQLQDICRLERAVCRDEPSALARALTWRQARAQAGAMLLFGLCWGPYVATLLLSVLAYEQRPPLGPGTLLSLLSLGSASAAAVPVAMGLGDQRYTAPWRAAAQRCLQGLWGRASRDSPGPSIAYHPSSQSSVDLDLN
- test method notes: GPBAR1-mediated transactivation, CRE-luciferase reporter in HEK-293T cells
- Type: cell-based
- test settings: compound at 10 microM, TLCA = 100%
Class met: GPBAR1 (% of activity compared to 10 µM TLCA) at least 60%. Class not met: GPBAR1 (% of activity compared to 10 µM TLCA) below 60%.

O=C(O)c1cccc(-c2ccc(OCc3ccc4ccccc4n3)cc2)c1 [CHIN117]
met
COC(=O)c1cccc(-c2ccc(OCc3ccc4ccccc4n3)cc2)c1 [CHIN116]
not met
COC(=O)c1ccc(-c2ccc(OCc3ccc4ccccc4n3)cc2)cc1 [CHIN119]
not met
COC(=O)c1cc(O)cc(OCc2ccc3ccccc3n2)c1 [CHIN107]
not met
O=C(O)c1ccc(-c2ccc(OCc3ccc4ccccc4n3)cc2)cc1 [CHIN120]
not met
COC(=O)c1cccc(OCc2ccc3ccccc3n2)c1 [CHIN104, Methyl 3-(Quinolin-2-ylmethoxy)Benzoate]
not met

*Q* Could you verify whether the entry OCc1cccc(-c2ccc(OCc3ccc4ccccc4n3)cc2)c1 [CHIN121] shows GPBAR1 (% of activity compared to 10 µM TLCA) of no less than 60%?
*A* met
